Origin of the recorded values: the RNAGym collection of RNA variant scans (doi:10.7554/elife.90254)

B1: LINE1-full (parent)
chain: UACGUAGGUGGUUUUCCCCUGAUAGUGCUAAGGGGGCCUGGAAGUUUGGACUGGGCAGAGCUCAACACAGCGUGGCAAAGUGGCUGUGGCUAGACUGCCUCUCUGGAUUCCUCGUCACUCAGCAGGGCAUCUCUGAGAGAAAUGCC

# Variants of: B1
# test.description: self-cleavage, relative activity (ratio to wild type); higher = more cleavage; in vitro, sequencing; the parent is a self-cleaving ribozyme
endpoint: self-cleavage
Reply with just the number.

// field: self-cleavage; key: U26A A31G ; value = 0.81

Looking up A22U U73A , I found its self-cleavage recorded as 1.52

For reference, reported self-cleavage for A64U C95U stands at 0.07
